Tested on: Escherichia coli TOP10
Assay: shrunken log2 fold change of peptide-encoding DNA abundance (4.5 h post-induction vs induction); higher = less antimicrobial activity (less host growth inhibition)
Details: time post-induction: 4.5 h; library: site-saturation at positions 5, 18, 19, 20
Lab note: anything with shrunken log2 fold change at or over -0.2 counts as Condition met; the rest go in Condition not met.

>>> discrete_label("RRIRYRPPRLPRPRPRPKLKPRP")
"Condition met"

(Q) Check the entry RRIRARPPRLPRPRPRPWESPRP : does shrunken log2 fold change equal or exceed -0.2?
(A) Condition met

(Q) Reported shrunken log2 fold change reaches at least -0.2 for RRIRNRPPRLPRPRPRPVFGPRP ?
(A) Condition met

(Q) Evaluate RRIRQRPPRLPRPRPRPWYAPRP : shrunken log2 fold change at minimum -0.2?
(A) Condition met

(Q) API: above_or_equal(metric=shrunken log2 fold change, cutoff=-0.2) for item RRIRHRPPRLPRPRPRPYTDPRP
(A) Condition met

(Q) For this sequence, is measured shrunken log2 fold change -0.2 or higher? RRIRIRPPRLPRPRPRPWIHPRP
(A) Condition met

(Q) shrunken log2 fold change >= -0.2 for RRIRDRPPRLPRPRPRPFSSPRP ?
(A) Condition met

(Q) // inclusive: shrunken log2 fold change at least -0.2? input: RRIRDRPPRLPRPRPRPPRVPRP
(A) Condition met

(Q) Could you tell me if the measured shrunken log2 fold change of RRIRNRPPRLPRPRPRPFLPPRP reaches -0.2 or more?
(A) Condition not met

(Q) # check: shrunken log2 fold change of RRIRLRPPRLPRPRPRPHQLPRP is greater than or equal to -0.2
(A) Condition not met

(Q) Has RRIRQRPPRLPRPRPRPLQFPRP a recorded shrunken log2 fold change greater than or equal to -0.2?
(A) Condition met

(Q) Test whether the sequence RRIRYRPPRLPRPRPRPVLHPRP records shrunken log2 fold change of -0.2 or higher.
(A) Condition not met

(Q) Confirm if shrunken log2 fold change reported for the sequence RRIRLRPPRLPRPRPRPTQIPRP is -0.2 or above.
(A) Condition met

(Q) In plain terms: is recorded shrunken log2 fold change at least -0.2 for RRIRRRPPRLPRPRPRPRYMPRP ?
(A) Condition not met

(Q) Given the entry RRIRYRPPRLPRPRPRPGPDPRP , answer whether its shrunken log2 fold change meets or surpasses -0.2.
(A) Condition met

----------
Tested on: Escherichia coli TOP10;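 also: peptides expressed intracellularly from a pBAD plasmid library in pooled LB shake-flask culture, induced with 0.3% L-arabinose, DNA abundance read by NGS, three biological replicates, DESeq2 with apeglm shrinkage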
Experiment: shrunken log2 fold change of peptide-encoding DNA abundance (4.5 h post-induction vs induction); higher = less antimicrobial activity (less host growth inhibition)
Conditions: time post-induction: 4.5 h; library: site-saturation at positions 5, 18, 19, 20
metric: shrunken log2 fold change
Reply with the value as a number alone.

Recorded shrunken log2 fold change, per entry:
>>> reported_measurement("RRIRSRPPRLPRPRPRPLTFPRP")
0.182
>>> reported_measurement("RRIRHRPPRLPRPRPRPYCNPRP")
-0.456
>>> reported_measurement("RRIRKRPPRLPRPRPRPMRCPRP")
1.16
>>> reported_measurement("RRIRYRPPRLPRPRPRPQDWPRP")
-0.258
>>> reported_measurement("RRIRGRPPRLPRPRPRPTKVPRP")
0.414

(Q) Using the record for RRIRDRPPRLPRPRPRPWPFPRP , report its shrunken log2 fold change.
(A) 0.0405

(Q) Fill blank: measured shrunken log2 fold change of the sequence RRIRFRPPRLPRPRPRPKMYPRP is ____.
(A) -0.815

(Q) Query: shrunken log2 fold change; subject: RRIRTRPPRLPRPRPRPFSIPRP
(A) -0.284

(Q) Look up shrunken log2 fold change: RRIRFRPPRLPRPRPRPWWPPRP
(A) 0.0712

(Q) Quick one: shrunken log2 fold change for RRIRMRPPRLPRPRPRPSKLPRP ?
(A) -0.0679
